Reported Cell viability at 30 μM values are given for each entry in this list.
# Test system: PBMC
# Test description: Cellular viability of PBMCs by MTS assay
# Format: cell-based, human
# Run parameters: 30 μM
# Protocol: The action of the these thiothalidomide analogs in inhibiting TNF-α secretion was assessed in human peripheral blood mononuclear cells (PBMC) and the results are shown in Table 1. Freshly prepared PBMCs were utilized in all studies. Blood, 40 ml, was drawn from a volunteer, immediately mixed with 50 U/ml Na heparin and was diluted to 50 ml total volume with sterile PBS. […] Recovered cells were counted, pipetted (200 ul of 5×10^5/ml) into 96 well plates, and incubated for an hour (37° C., 5% CO2). […]
Report the value in % with no unit label.

Compound	Target	Cell viability at 30 μM, %
O=C1c2ccccc2C(=O)N1C1CCC(=S)NC1=S (stereo not shown)	PBMC	69
S=C1NC(=S)c2ccccc21 [Compound 224, dithiophthalimide]	PBMC	54
O=C1c2ccccc2C(=S)N1C1CCC(=S)NC1=S (stereo not shown)	PBMC	94
COC(=O)CCC(C(=O)OC)N1C(=S)c2ccccc2C1=S (stereo not shown)	PBMC	57
O=C(O)CCC(C(=O)O)N1C(=O)c2ccccc2C1=S (stereo not shown)	PBMC	86

Record O=C1CCC(N2C(=O)c3ccccc3C2=S)C(=O)N1 (stereo not shown) , field Cell viability at 30 μM: 94

Record O=C1c2ccccc2C(=S)N1C1CC=CCC1 (stereo not shown) , field Cell viability at 30 μM: 57

Record COC(=O)CCC(C(=O)OC)N1C(=O)c2ccccc2C1=S (stereo not shown) , field Cell viability at 30 μM: 93

Record S=C1c2ccccc2C(=S)N1C1CC=CCC1 (stereo not shown) , field Cell viability at 30 μM: 50

====

# System: TNF-α
# Test description: Inhibition of LPS-induced TNF-α secretion in human PBMC (ELISA)
# Type: cell-based
# Run parameters: Homo sapiens, PBMC; TNF-α assay of Example 11
Recorded metric: EC50 (nM)
Report the value in nM with no unit label.

Record Nc1ccc2c(=O)n(C3CCC(=O)NC3=O)c(=O)oc2c1 (stereo not shown) , field EC50: 400

====

# Test system: PBMC
# Test description: Cellular viability of PBMCs by MTS assay
# Type: cell-based, human
# Run parameters: 3 μM
Quick rule for you: Cell viability at 3 μM under 90% gets t, anything else gets f.

See these solved cases before continuing.
Molecule	Label
S=C1NC(=S)c2ccccc21 [Compound 224, dithiophthalimide]	t
S=C1CCCC(=S)N1 [Compound 219, 2,6-Piperidinedithione]	f
S=C1c2ccccc2C(=S)N1C1CC=CCC1 (stereo not shown) [Compound 222]	f
COC(=O)CCC(C(=O)OC)N1C(=O)c2ccccc2C1=S (stereo not shown) [Compound 208]	f
O=C1NC(=S)CCC1N1C(=O)c2ccccc2C1=S (stereo not shown) [Compound 215]	t
O=C1CCC(N2C(=O)c3ccccc3C2=S)C(=O)N1 (stereo not shown) [Compound 212]	f
O=C1c2ccccc2C(=S)N1C1CCC(=S)NC1=S (stereo not shown) [Compound 216]	t

Please find the next molecule below.
### Prompt Field: below-cutoff. Rule: recorded Cell viability at 3 μM strictly less than 90%. Subject: O=C1c2ccccc2C(=O)N1C1CCC(=S)NC1=S (stereo not shown) [Compound 213]
### Response t

====

Recorded metric: melting point

Would you please look over these solved cases?
Molecule	melting point
O=C1c2ccccc2C(=O)N1C1CCC(=S)NC1=S (stereo not shown) [Compound 213]	263 to 265 °C
NC(=O)c1cc2ccccc2cc1C(=O)NC1CCC(=O)NC1=O (stereo not shown) [Compound 14]	> 300 °C
O=C1NC(=S)CCC1N1C(=O)c2ccccc2C1=O (stereo not shown) [Compound 205]	225 to 226 °C

In the following, a different molecule is considered.
Record O=C1c2ccccc2C(=S)N1C1CC=CCC1 (stereo not shown) [Compound 223] , field melting point: 67 to 68 °C
